# Test system: RAW264.7
# test method notes: Inhibition of LPS-induced PGE2 production in mouse RAW264.7 cells pre-treated for 3 hrs before LPS stimulation for 24 hrs by ELISA
# Type: functional, cell-based
property measured: IC50 (µM)
One number for each entry, in µM.

Enquiry: Field request: IC50 | item: Cc1ccc2c(c1/C=C/C=C/C(=O)O)[C@H](C)C[C@H](C)C2
Return: 15.7

====

# Test system: BV-2
# test method notes: Inhibition of LPS-induced IL-1beta production in mouse BV2 cells pre-treated for 3 hrs before LPS stimulation for 24 hrs by ELISA
# Assay type: functional, cell-based
property measured: IC50

Enquiry: # get_value(readout='IC50', item= Cc1ccc2c(c1/C=C/C=C/C(=O)O)[C@H](C)C[C@H](C)C2 )
Return: 21.9 µM

====

# target under test: Tyrosine-protein phosphatase non-receptor type 1 (Homo sapiens, UniProt P18031)
# Sequence (P18031 whole entry): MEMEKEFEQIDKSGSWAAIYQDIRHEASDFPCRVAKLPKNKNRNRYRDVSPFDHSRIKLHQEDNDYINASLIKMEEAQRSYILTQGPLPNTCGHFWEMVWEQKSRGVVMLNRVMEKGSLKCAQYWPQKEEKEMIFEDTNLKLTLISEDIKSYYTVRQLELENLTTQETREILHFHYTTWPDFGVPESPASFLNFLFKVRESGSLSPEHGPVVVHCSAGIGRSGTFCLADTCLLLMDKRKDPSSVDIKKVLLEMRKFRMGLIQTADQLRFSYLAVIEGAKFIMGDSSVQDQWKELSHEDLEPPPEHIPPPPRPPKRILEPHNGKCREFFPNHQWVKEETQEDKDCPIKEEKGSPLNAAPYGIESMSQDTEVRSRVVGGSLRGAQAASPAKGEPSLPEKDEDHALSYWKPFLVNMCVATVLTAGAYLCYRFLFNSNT
# test method notes: Inhibition of human recombinant PTP1B assessed as reduction in pNPP substrate hydrolysis incubated for 30 mins
I'd be grateful if you could share measured pIC50 for these entries.
One number for each entry, as −log10 of the molar value.

Cc1ccc2c(c1/C=C/C=C/C(=O)O)[C@H](C)C[C@H](C)C2 = 5.09

Enquiry: Look up pIC50: C[C@H]1C[C@@H](C)[C@@H]2[C@@H](/C=C/C=C/C(=O)O)[C@@H](C)C=C[C@H]2C1
Return: 5.09

Data provenance is ChEMBL document CHEMBL3351315.
